- Test system: HIV-1 RT mutant G190S
- assay-details: single round infection assay, G190S
- Type: cell-based
- condition-set: Human immunodeficiency virus 1
Reported values of IC50 for individual entries
Your answer is read as nM, so omit the unit and give the number.

Solved entries (count: 3):
>  <smi>
Cc1cc(/C=C/C#N)cc(C)c1Nc1nc(Nc2ccc(C#N)cc2)nc2[nH]cnc12

>  <recorded-result>
0.2

$$$$
>  <smi>
Cc1cc(/C=C/C#N)cc(C)c1Nc1nc(Nc2ccc(C(F)(F)F)cc2)c2nc[nH]c2n1

>  <recorded-result>
0.35

$$$$
>  <smi>
Cc1cc(/C=C/C#N)cc(C)c1Nc1nc(Nc2ccc(F)cc2)c2nc[nH]c2n1

>  <recorded-result>
0.74

$$$$

Field: next compound
Exercise: Quote IC50 reported for Cc1cc(/C=C/C#N)cc(C)c1Nc1ncc([N+](=O)[O-])c(Nc2ccc(C#N)cc2)n1 please.
Key: 0.17

====

- Tested on: HIV-1 RT mutant V106A/F227L/L234I
- assay-details: single round infection assay, V106A/F227L/L234I
- Type: cell-based
- condition-set: V106A/F227L/L234I vs WT
recorded-metric: fold-change of IC50 of the mutant relative to WT
Write no unit; give the number alone.

>  <smi>
Cc1cc(/C=C/C#N)cc(C)c1Nc1ncc2ncn(-c3ccc(C#N)cc3)c2n1

>  <recorded-result>
5

$$$$
>  <smi>
COc1ccc(Nc2nc(Nc3c(C)cc(/C=C/C#N)cc3C)nc3[nH]cnc23)cc1

>  <recorded-result>
18

$$$$
>  <smi>
Cc1cc(/C=C/C#N)cc(C)c1Nc1nc(Nc2ccc3scnc3c2)c2nc[nH]c2n1

>  <recorded-result>
10

$$$$
>  <smi>
CC(=O)c1ccc(Nc2nc(Nc3c(C)cc(/C=C/C#N)cc3C)nc3[nH]cnc23)cc1

>  <recorded-result>
7

$$$$
>  <smi>
Cc1cc(/C=C/C#N)cc(C)c1Nc1ncc(N)c(Nc2ccc(C#N)cc2)n1

>  <recorded-result>
5

$$$$

Exercise: Quote fold-change of IC50 of the mutant relative to WT reported for Cc1cc(/C=C/C#N)cc(C)c1Nc1nc(Nc2ccc(C#N)cc2)ncc1[N+](=O)[O-] please.
Key: 2

Exercise: Provide only the value of recorded fold-change of IC50 of the mutant relative to WT for Cc1cc(/C=C/C#N)cc(C)c1Nc1nc(Nc2ccc(F)cc2)c2nc[nH]c2n1
Key: 6

Exercise: Note down fold-change of IC50 of the mutant relative to WT recorded for Cc1cc(/C=C/C#N)cc(C)c1Nc1nc(Nc2ccc(C#N)cc2)nc2[nH]cnc12
Key: 6

====

- System: HIV-1 RT mutant E138K/M184V
- assay-details: single round infection assay, E138K/M184V
- Format: cell-based
- condition-set: E138K/M184V; ± SD, n=4
recorded-metric: IC50 (nM)
// return numeric value only (unit: nM, not printed)

>  <molecule>
Cc1cc(/C=C/C#N)cc(C)c1Nc1nc(Nc2ccc(C(F)(F)F)cc2)c2nc[nH]c2n1 [compound 15]

>  <units-symbol>
nM

>  <IC50>
3.1

$$$$
>  <molecule>
Cc1cc(/C=C/C#N)cc(C)c1Nc1nc(Nc2ccc(C#N)cc2)ncc1N [compound 7]

>  <units-symbol>
nM

>  <IC50>
2.4

$$$$
>  <molecule>
Cc1cc(/C=C/C#N)cc(C)c1Nc1ncc(N)c(Nc2ccc(C#N)cc2)n1 [compound 9]

>  <units-symbol>
nM

>  <IC50>
5.5

$$$$
>  <molecule>
COc1ccc(Nc2nc(Nc3c(C)cc(/C=C/C#N)cc3C)nc3[nH]cnc23)cc1 [compound 16]

>  <units-symbol>
nM

>  <IC50>
1.7

$$$$

Exercise: Please look at this molecule and report its IC50: Cc1cc(/C=C/C#N)cc(C)c1Nc1ccnc(Nc2ccc(C#N)cc2)n1 [RPV, rilpivirine]
Key: 1.3

Exercise: Note down IC50 recorded for Cc1cc(/C=C/C#N)cc(C)c1Nc1nc(Nc2ccc(C#N)cc2)ncc1[N+](=O)[O-] [compound 6]
Key: 1.63

Exercise: Provide measured IC50 value, entry: Cc1cc(/C=C/C#N)cc(C)c1Nc1nc(Nc2ccc3scnc3c2)c2nc[nH]c2n1 [compound 21]
Key: 2.3

Exercise: Annotate the molecule Cc1cc(/C=C/C#N)cc(C)c1-n1cnc2cnc(Nc3ccc(C#N)cc3)nc21 [compound 27] with its measured IC50.
Key: 1.8

====

- Test system: HIV-1 RT mutant K101E
- assay-details: single round infection assay, K101E
- Format: cell-based
- condition-set: Human immunodeficiency virus 1, K101E; ± SD, n=4
- Experimental: The human osteosarcoma cell line, HOS, was obtained from Dr. Richard Schwartz (Michigan State University, East Lansing, MI) and grown in Dulbecco’s modified Eagle’s medium (Invitrogen, Carlsbad, CA) supplemented with 5 % (v/v) fetal bovine serum, 5 % newborn calf serum, and penicillin (50 units/ml) plus streptomycin (50 µg/ml; Quality Biological, Gaithersburg, MD). […]
pIC50: −log10 of the molar value.
recorded-metric: pIC50

Some entries whose results are on file:
>  <compound>
Cc1cc(/C=C/C#N)cc(C)c1Nc1nc(Nc2ccc(C#N)cc2)ncc1[N+](=O)[O-] [compound 6]

>  <pIC50>
> 8.60

$$$$
>  <compound>
CC(=O)c1ccc(Nc2nc(Nc3c(C)cc(/C=C/C#N)cc3C)nc3[nH]cnc23)cc1 [compound 14]

>  <pIC50>
> 8.60

$$$$

# next compound below
Exercise: Tell me pIC50 reported for Cc1cc(/C=C/C#N)cc(C)c1Nc1ncc(N)c(Nc2ccc(C#N)cc2)n1 [compound 9]
Key: > 8.22

====

- Test system: HIV-1 RT mutant V106A/F227L/L234I
- assay-details: single round infection assay, V106A/F227L/L234I
- Format: cell-based
- condition-set: V106A/F227L/L234I (selected by DOR); ± SD, n=4
# IC50 values compiled below
Numeric only. Scale: nM

Example entries begin here.
>  <smi>
Cc1cc(/C=C/C#N)cc(C)c1Nc1nc(Nc2ccc(C#N)cc2)nc2[nH]cnc12

>  <recorded-result>
3.4

$$$$
>  <smi>
Cc1cc(/C=C/C#N)cc(C)c1Nc1ncc(N)c(Nc2ccc(C#N)cc2)n1

>  <recorded-result>
6.4

$$$$
>  <smi>
CC(=O)c1ccc(Nc2nc(Nc3c(C)cc(/C=C/C#N)cc3C)nc3[nH]cnc23)cc1

>  <recorded-result>
2.7

$$$$
>  <smi>
COc1ccc(Nc2nc(Nc3c(C)cc(/C=C/C#N)cc3C)nc3[nH]cnc23)cc1

>  <recorded-result>
3

$$$$

Consider the additional compound presented here.
Exercise: Quickly give me recorded IC50 for Cc1cc(/C=C/C#N)cc(C)c1Nc1nc(Nc2ccc3scnc3c2)c2nc[nH]c2n1
Key: 4.3

====

- System: HIV-1 RT mutant V106A/F227L
- assay-details: single round infection assay, V106A/F227L
- Type: cell-based
- condition-set: V106A/F227L vs WT
The entries below come with measured fold-change of IC50 of the mutant relative to WT values attached.

>  <smi>
Cc1cc(/C=C/C#N)cc(C)c1Nc1nc(Nc2ccc(C#N)cc2)ncc1[N+](=O)[O-]

>  <recorded-result>
4

$$$$
>  <smi>
CC(=O)c1ccc(Nc2nc(Nc3c(C)cc(/C=C/C#N)cc3C)nc3[nH]cnc23)cc1

>  <recorded-result>
12

$$$$
>  <smi>
Cc1cc(/C=C/C#N)cc(C)c1Nc1ncc([N+](=O)[O-])c(Nc2ccc(C#N)cc2)n1

>  <recorded-result>
4

$$$$
>  <smi>
Cc1cc(/C=C/C#N)cc(C)c1-n1cnc2cnc(Nc3ccc(C#N)cc3)nc21

>  <recorded-result>
5

$$$$
>  <smi>
COc1ccc(Cn2cnc3c(Nc4ccc(C#N)cc4)nc(Nc4c(C)cc(/C=C/C#N)cc4C)nc32)cc1

>  <recorded-result>
11

$$$$

Exercise: Quickly give me recorded fold-change of IC50 of the mutant relative to WT for Cc1cc(/C=C/C#N)cc(C)c1Nc1nc(Nc2ccc(F)cc2)c2nc[nH]c2n1
Key: 19

Exercise: Item Cc1cc(/C=C/C#N)cc(C)c1Nc1nc(Nc2ccc(C#N)cc2)nc2[nH]cnc12 : provide fold-change of IC50 of the mutant relative to WT
Key: < 2

Exercise: Query fold-change of IC50 of the mutant relative to WT for Cc1cc(/C=C/C#N)cc(C)c1Nc1ncc2ncn(-c3ccc(C#N)cc3)c2n1
Key: 8

====

- Test system: HIV-1 RT mutant K101E/M184I
- assay-details: single round infection assay, K101E/M184I
- Format: cell-based
- condition-set: K101E/M184I vs WT
recorded-metric: fold-change of IC50 of the mutant relative to WT

Please review the entries below; each comes with its answer.
>  <smi>
Cc1cc(/C=C/C#N)cc(C)c1Nc1nc(Nc2ccc(C#N)cc2)ncc1N

>  <recorded-result>
< 2

$$$$
>  <smi>
COc1ccc(Nc2nc(Nc3c(C)cc(/C=C/C#N)cc3C)nc3[nH]cnc23)cc1

>  <recorded-result>
< 2

$$$$
>  <smi>
Cc1cc(/C=C/C#N)cc(C)c1Nc1nc(Nc2ccc(C(F)(F)F)cc2)c2nc[nH]c2n1

>  <recorded-result>
< 2

$$$$

Exercise: Give fold-change of IC50 of the mutant relative to WT for Cc1cc(/C=C/C#N)cc(C)c1Nc1nc(Nc2ccc(C#N)cc2)c2nc[nH]c2n1 tested on HIV-1 RT mutant K101E/M184I.
Key: < 2

Exercise: Tell me its fold-change of IC50 of the mutant relative to WT on HIV-1 RT mutant K101E/M184I: CC(=O)c1ccc(Nc2nc(Nc3c(C)cc(/C=C/C#N)cc3C)nc3[nH]cnc23)cc1
Key: < 2

Exercise: Give the observed fold-change of IC50 of the mutant relative to WT of Cc1cc(/C=C/C#N)cc(C)c1Nc1nc(Nc2ccc(C#N)cc2)ncc1[N+](=O)[O-] for HIV-1 RT mutant K101E/M184I.
Key: < 2
